Assay: chemical genetic growth profiling, strain panel (AID 1159580);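 also: tested at 20 µM; growth read once vehicle control cultures reached saturation at 30 °C; 1 = growth at the plate median or of vehicle wells; lower values mean less growth of the strain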
Conditions: S. cerevisiae deletion strains, growth OD, locus YCL061C, strain MRC1, hits give low values
The whole screen tested about 5,500 compounds, of which about 2,000 (36%) were called active. Another 18% or so got no clear call; they are omitted. The list shows a part of the results.
Quick reference: normalized growth of the listed items.
No unit in the answer, only the number.

# molecular.string, normalized growth
measured = [
    ("O=C(O)CC(CC(=O)O)c1ccc(C(F)(F)F)cc1", 0.981),
]

Quote normalized growth reported for N/C(=N\OC(=O)c1ccno1)c1ccc(C(F)(F)F)cc1 please. 0.974

Quote normalized growth reported for COc1ccccc1N1CCN(Cc2ccc(F)cc2)CC1 please. 1

Quote normalized growth reported for CCn1cc(C(=O)O)c(=O)c2cnc(N3CCCC3)nc21 please. 1

Quote normalized growth reported for CC1(C)CCC(C(C)(C)O)CC1 please. 0.999

Quote normalized growth reported for O=C(O)CNCP(=O)(O)O please. 1.01

Quote normalized growth reported for C=CC1=C(C)/C(=C/c2[nH]c(Cc3[nH]c(/C=C4\NC(=O)C(C)=C4C=C)c(C)c3CCC(=O)O)c(CCC(=O)O)c2C)NC1=O please. 0.978

Quote normalized growth reported for CCn1cc(C(=O)O)c(=O)c2cc3c(cc21)OCO3 please. 0.971

Quote normalized growth reported for COc1ccccc1NC(=O)N1CCCN(C(=O)c2cccs2)CC1 please. 1.02

---

Assay: chemical genetic growth profiling, strain panel (AID 1159580)
Conditions: S. cerevisiae deletion strains, growth OD, locus YPL051W, strain arl3, hits give low values
The campaign covered roughly 5,500 compounds. About 2,000 (36%) were called active. Not shown: some 18% with an inconclusive outcome. Some of the results follow.
measurement.label: normalized growth
No unit in the answer, only the number.

# compound, normalized growth
rows = [
    ("CCOC(=O)CCCCCCCCCCCCC1C=CCC1 (centres undefined)", 0.989),
    ("CCOC(=O)C(C)(N)Cc1ccc(O)c(O)c1 (centres undefined)", 0.964),
    ("CCOP(=S)(OCC)Oc1ccc2c(C)c(Cl)c(=O)oc2c1", 0.963),
    ("c1ccc(-c2ccc(C(c3ccccc3)n3ccnc3)cc2)cc1 (centres undefined)", 0.0743),
    ("CC(=O)O[C@H]1CC[C@@]2(C)C(=CCC3C2CC[C@@]2(C)C3CC[C@@H]2C(C)CCCC(C)C)C1 (some centres undefined)", 0.982),
]

Quote normalized growth reported for O=C(/C=C/c1ccc(O)c(O)c1)O[C@@H]1C[C@](O)(C(=O)O)C[C@@H](O)[C@H]1O please. 0.999

Quote normalized growth reported for COP(=S)(OC)Oc1ccc(SC)c(C)c1 please. 0.96

Quote normalized growth reported for CCCN(CCC)C(=O)C(CCC(=O)O)NC(=O)c1ccccc1 (centres undefined) please. 0.987

Quote normalized growth reported for CC(=O)O[C@H]1CC[C@@]2(C)C(=CCC3C2CC[C@]2(C)C(=O)CCC32)C1 (some centres undefined) please. 0.953

---

Assay: chemical genetic growth profiling, strain panel (AID 1159580)
Conditions: S. cerevisiae deletion strains, growth OD, locus YNR052C, strain pop2, hits give low values
Hit rate of the full screen: of about 5,500 compounds, about 2,000 (36%) were called active. Inconclusive results (about 18%) are left out. Some of the results follow.
measurement.label: normalized growth
No unit in the answer, only the number.

Consider the reported normalized growth for these molecules:
# molecule, recorded.measurement
data = [
    ("COc1ccccc1-c1cc(=O)c2c(OC)cccc2o1", 0.958),
    ("CC1=C(/C=C/C(C)=C/C=C/C(C)=C\\C(=O)O)C(C)(C)CCC1", 1.01),
    ("CC(=O)Oc1cc(C)c2c(c1C(OC(C)=O)OC(C)=O)Oc1c(c(C)c(OC(C)=O)c3c1C(OC(C)=O)OC3=O)OC2=O (centres undefined)", 0.961),
]

Quote normalized growth reported for O=C1N=C(O)CN1/N=C\c1ccc(-c2ccc([N+](=O)[O-])cc2)o1 please. 1.03

Quote normalized growth reported for O=c1ccn([C@@H]2O[C@H](COP(=O)(O)OP(=O)(O)OP(=O)(O)O)[C@@H](O)[C@H]2O)c(=O)[nH]1 please. 0.995

Quote normalized growth reported for COc1cc(C(=O)O)cc(OC)c1O please. 0.993

Quote normalized growth reported for COc1cc(/C=C/C(=O)O)cc(OC)c1OC please. 1.01

Quote normalized growth reported for S=c1[nH]c2ccccc2s1 please. 0.984

Quote normalized growth reported for O=C(O)c1cc(O)c(O)c(O)c1 please. 1.01

Quote normalized growth reported for c1ccc2[nH]c(-c3cscn3)nc2c1 please. 0.983

Quote normalized growth reported for CCn1cc(C(=O)O)c(=O)c2cnc(N3CCCC3)nc21 please. 0.961

---

Experiment: chemical genetic growth profiling, strain panel (AID 1159580)
Conditions: S. cerevisiae deletion strains, growth OD, locus YER155C, strain BEM2 (second series), hits give low values
In all, about 5,500 compounds went through this assay and about 2,000 (36%) were called active. Roughly 18% stayed inconclusive and do not appear here. This is one part of the list.
measurement.label: normalized growth
No unit in the answer, only the number.

Consider the reported normalized growth for these compounds:
# molecular.string, normalized growth
measured = [
    ("COC(=O)[C@H]1[C@H]2C[C@@H]3c4[nH]c5cc(OC)ccc5c4CCN3C[C@H]2C[C@@H](OC(=O)c2cc(OC)c(OC)c(OC)c2)[C@@H]1OC", 0.931),
    ("COc1ccc(/C=C/C(=O)c2ccc(O)cc2O)cc1", 0.125),
    ("C=CCc1cc(OC)c2c(c1OC)OCO2", 0.462),
]

Quote normalized growth reported for CCn1cc(C(=O)O)c(=O)c2cnc(N3CCCC3)nc21 please. 0.998

---

Test: chemical genetic growth profiling, strain panel (AID 1159580);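 also: tested at 20 µM; growth read once vehicle control cultures reached saturation at 30 °C; 1 = growth at the plate median or of vehicle wells; lower values mean less growth of the strain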
Details: S. cerevisiae deletion strains, growth OD, locus YKR001C, strain vps1, hits give low values
Hit rate of the full screen: of about 5,500 compounds, about 2,000 (36%) were called active. Roughly 18% stayed inconclusive and do not appear here. The list shows a part of the results.
measurement.label: normalized growth
No unit in the answer, only the number.

Consider the reported normalized growth for these molecules:
# molecule, normalized growth
data = [
    ("CC1(C)CC2C1CCC1(C)OC2(C)CCC1O (stereo not drawn)", 1.03),
    ("O=C1OCCN1/N=C\\c1ccc([N+](=O)[O-])o1", 0.938),
    ("O=C1N=C(O)CN1/N=C\\c1ccc(-c2ccc([N+](=O)[O-])cc2)o1", 1.03),
    ("CC1=C(/C=C/C(C)=C/C=C/C(C)=C\\C(=O)O)C(C)(C)CCC1", 0.942),
    ("O=C1CN(/N=C\\c2ccc([N+](=O)[O-])o2)C(=O)N1", 0.965),
    ("CC12CCC(CC1)C(C)(C)O2", 1.01),
    ("O=c1cccc2n1C[C@H]1CNCC2C1", 0.964),
]

Now for another entry.
Quote normalized growth reported for CCCSP(=O)(OCC)SCCC please. 0.982

---

Test: chemical genetic growth profiling, strain panel (AID 1159580);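 also: tested at 20 µM; growth read once vehicle control cultures reached saturation at 30 °C; 1 = growth at the plate median or of vehicle wells; lower values mean less growth of the strain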
Settings: S. cerevisiae deletion strains, growth OD, locus YIL125W, strain kgd1
In all, about 5,500 compounds went through this assay and about 2,000 (36%) were called active. Not shown: some 18% with an inconclusive outcome. No stated cut-off is given here; in the data, active means normalized growth mostly below about 0.91 (no sharp cut-off); inconclusive means no clear call, values can overlap the other calls; inactive means mostly above about 0.92. Some of the results follow.
Answer with one of the outcomes Y (active), N (inactive)

# compound, classification
rows = [
    ("COc1ccc(/C=C/c2cc(O)cc(O)c2)cc1", "N"),
    ("Nc1ccc(S(=O)(=O)Nc2nccs2)cc1", "N"),
    ("COc1cc(C(=O)O)c(O)c2c1OCO2", "N"),
]

Now consider a different compound.
Lab log entry: O=C(O)CCCCC1SCC2NC(=O)NC21 (centres undefined) — outcome as called in the assay? N

---

Quick reference: normalized growth of the listed items.
Test: chemical genetic growth profiling, strain panel (AID 1159580);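 also: tested at 20 µM; growth read once vehicle control cultures reached saturation at 30 °C; 1 = growth at the plate median or of vehicle wells; lower values mean less growth of the strain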
Conditions: S. cerevisiae deletion strains, growth OD, locus YEL061C, strain CIN8, hits give low values
In all, about 5,500 compounds went through this assay and about 2,000 (36%) were called active. About 18% were inconclusive and are not listed. The list shows a part of the results.
No unit in the answer, only the number.

Consider the reported normalized growth for these molecules:
# molecule, normalized growth
records = [
    ("Nc1c(Br)cc(Br)cc1CNC1CCC(O)CC1 (centres undefined)", 1.01),
    ("O=C(O)c1cc(=O)c(O)c2c(O)c(O)ccc2c1", 1),
    ("C=CC1=C(C)/C(=C/c2[nH]c(Cc3[nH]c(/C=C4\\NC(=O)C(C)=C4C=C)c(C)c3CCC(=O)O)c(CCC(=O)O)c2C)NC1=O", 1),
    ("COc1ccc(C[C@H](N)C(=O)N[C@@H]2[C@@H](CO)OC(n3cnc4c(N(C)C)ncnc43)[C@@H]2O)cc1 (some centres undefined)", 1),
    ("COc1cc(C(=O)O)cc(OC)c1O", 0.986),
]

Quote normalized growth reported for C/C(=N/NC1=NCCN1)c1ccc(F)cc1 please. 1.01

Quote normalized growth reported for CN(Cc1cc(Br)cc(Br)c1N)C1CCCCC1 please. 0.975

Quote normalized growth reported for CC(=O)OC/C=C(C)/C=C/C=C(C)/C=C/C1=C(C)CCCC1(C)C please. 1.02

Quote normalized growth reported for CC1=C(/C=C/C(C)=C/C=C/C(C)=C\C(=O)O)C(C)(C)CCC1 please. 1
